Listed next: entries and their corresponding pest or weed control at 125 g/ha.
Tested on: giant foxtail (Setaria faberii)
assay-overview: Test A preemergence
Assay type: in vivo
study-conditions: Setaria faberi, pre-emergence, 240 h, Preemergence, 125 g ai/ha; 0 to 100 scale (0 no effect, 100 complete control); read-out: Plant response rating, Foxtail, Giant
readout-label: pest or weed control at 125 g/ha

* CN1C[C@H](c2ccc(C(F)(F)F)cc2)[C@@H](C(=O)Nc2ccccc2C#N)C1=O [Compound 1379] | 100%
* Cc1cc(F)cc([C@H]2CNC(=O)[C@@H]2C(=O)Nc2cccc(F)c2F)c1 [Compound 1309] | 80%
* CN1C[C@H](c2ccc(C(F)(F)F)cc2)[C@@H](C(=O)Nc2cccnc2F)C1=O [Compound 1396] | 90%
* O=C1NC[C@H](c2cncs2)[C@H]1C(=O)Nc1cccc(F)c1F [Compound 1336] | 0%
* CN1CC[C@H](c2cccc(C(F)(F)F)c2)[C@@H](C(=O)Nc2ccc(F)c(F)c2F)C1=O [Compound 1395] | 90%
* N#Cc1cc([C@H]2CNC(=O)[C@]2(O)C(=O)Nc2cccc(F)c2F)ccc1F [Compound 1374] | 0%
* CN1C[C@H](c2ccc(C(F)(F)F)cc2)[C@@H](C(=O)Nc2cccc(C#N)c2F)C1=O [Compound 1381] | 100%
* CN1C[C@H](c2ccc3c(c2)OC(F)(F)O3)[C@@H](C(=O)Nc2ccc(F)nc2F)C1=O [Compound 1350] | 100%

---

Tested on: giant foxtail (Setaria faberii)
assay-overview: Test A postemergence
Format: in vivo
study-conditions: Setaria faberi, post-emergence, 240 h, Postemergence, 500 g ai/ha; visual injury, 0 to 100 scale (0 no effect, 100 complete control), approx. 10 d; read-out: Plant response rating, Foxtail, Giant
A collection of compounds and their measured pest or weed control at 500 g/ha
readout-label: pest or weed control at 500 g/ha (%)

• CN1C[C@H](c2ccc3c(c2)CCO3)[C@@H](C(=O)Nc2ccccc2F)C1=O = 90
• O=C1NC[C@H](c2cncs2)[C@H]1C(=O)Nc1cccc(F)c1F = 0
• O=C1NC[C@H](c2cncs2)[C@H]1C(=O)Nc1ccccc1F = 0
• Cc1cc(F)cc([C@H]2CNC(=O)[C@@H]2C(=O)Nc2ccccc2S(C)(=O)=O)c1 = 20

---

# key: entry, value: plant injury at 125 g/ha
Tested on: wheat (Triticum aestivum)
assay-overview: Test A postemergence
Format: in vivo
study-conditions: Triticum aestivum, post-emergence, 240 h, 125 g ai/ha, postemergence; visual injury on 0 to 100 scale (0 no effect, 100 complete control), approx. 10 d; read-out: Wheat plant response rating
Source text: […]
readout-label: plant injury at 125 g/ha (%)

* CN1C[C@H](c2cc(C(F)F)cs2)[C@@H](C(=O)Nc2ccccc2F)C1=O | 20
* Cc1ccc([C@H]2CN(C)C(=O)[C@]2(O)C(=O)Nc2cccc(F)c2F)cc1 (racemic) | 0
* Cc1cc([C@H]2CNC(=O)[C@@H]2C(=O)Nc2ccccc2F)ccc1C(F)(F)F | 0
* Cc1ccc([C@H]2CNC(=O)[C@@H]2C(=O)Nc2cccc(F)c2F)cc1C | 0
* Cc1cc([C@H]2CN(C)C(=O)[C@@H]2C(=O)Nc2ccccc2S(C)(=O)=O)ccc1Br | 20
* CSc1ccccc1NC(=O)[C@H]1C(=O)NC[C@@H]1c1cc(F)c(F)c(F)c1 | 0
* C=C(C)c1cccc([C@H]2CN(C)C(=O)[C@@H]2C(=O)Nc2cccc(F)c2F)c1 | 20
